PROTOCOL_DESCRIPTION: Zeta-potential of siRNA-lipid complexes (Malvern Zetasizer)
Type: physicochemical
CONDITION_DETAILS: pH = 7.4, N/P = 15
MEASURED_PROPERTY: Zeta-potential of siRNA-lipid complexes

1) CCCCCCCC/C=C\CCCCCCCC(=O)NC(CS)C(=O)NC(Cc1cnc[nH]1)C(=O)NCCNC(=O)CCN(CCN)CCC(=O)NCCNC(=O)C(Cc1cnc[nH]1)NC(=O)C(CS)NC(=O)CCCCCCC/C=C\CCCCCCCC (stereo not shown)	22.68 ± 2.08 mV
2) CCCCCCCC/C=C\CCCCCCCC(=O)NC(CS)C(=O)NCCNC(=O)CCN(CCCNCCCCNCCCN)CCC(=O)NCCNC(=O)C(CS)NC(=O)CCCCCCC/C=C\CCCCCCCC (stereo not shown)	25.16 ± 3.75 mV
3) CCCCC/C=C\C/C=C\CCCCCCCC(=O)NC(CS)C(=O)NC(Cc1cnc[nH]1)C(=O)NCCNC(=O)CCN(CCN)CCC(=O)NCCNC(=O)C(Cc1cnc[nH]1)NC(=O)C(CS)NC(=O)CCCCCCC/C=C\C/C=C\CCCCC (stereo not shown) [EHCLn]	24.92 ± 2.89 mV
4) CCCCCCCC/C=C\CCCCCCCC(=O)NC(CS)C(=O)NC(Cc1cnc[nH]1)C(=O)NCCNC(=O)CCN(CCCNCCCCNCCCN)CCC(=O)NCCNC(=O)C(Cc1cnc[nH]1)NC(=O)C(CS)NC(=O)CCCCCCC/C=C\CCCCCCCC (stereo not shown)	23.94 ± 1.70 mV
5) CCCCCCCC/C=C\CCCCCCCC(=O)N[C@@H](CS)C(=O)NCCNC(=O)CCN(CCN)CCC(=O)NCCNC(=O)[C@H](CS)NC(=O)CCCCCCC/C=C\CCCCCCCC	25.19 ± 2.32 mV
6) CCCCC/C=C\C/C=C\CCCCCCCC(=O)NC(CS)C(=O)NC(Cc1cnc[nH]1)C(=O)NCCNC(=O)CCN(CCCNCCCCNCCCN)CCC(=O)NCCNC(=O)C(Cc1cnc[nH]1)NC(=O)C(CS)NC(=O)CCCCCCC/C=C\C/C=C\CCCCC (stereo not shown) [SHCLn]	23.80 ± 2.95 mV
7) CCCCC/C=C\C/C=C\CCCCCCCC(=O)NC(CS)C(=O)NCCNC(=O)CCN(CCCNCCCCNCCCN)CCC(=O)NCCNC(=O)C(CS)NC(=O)CCCCCCC/C=C\C/C=C\CCCCC (stereo not shown)	17.15 ± 2.99 mV

All figures here come from patent US11129845B2.
